system: SK-OV-3; test: Growth inhibition of human SKOV3 cells assessed as cell growth at 10 uM after 48 hrs by sulforhodamine B assay; format: functional; details: SK-OV-3, 48 h, read-out: Activity
PARAMETER_MEASURED: growth at 10 µM (%)

>>> value("COc1cc(-c2nn(-c3cccc(NC(=O)Nc4ccc(Cl)c(C(F)(F)F)c4)c3)cc2-c2ccncc2)ccc1Cl")
0.43
>>> value("Cc1cc(C(=O)Nc2cccc(-n3cc(-c4ccncc4)c(-c4ccc(Cl)c(O)c4)n3)c2)ccc1Br")
100
>>> value("O=C(Nc1cccc(-n2cc(-c3ccncc3)c(-c3ccc(Cl)c(O)c3)n2)c1)c1ccccc1")
80.1
>>> value("COc1cc(-c2nn(-c3cccc(NC(=O)c4cccc(C(F)(F)F)c4)c3)cc2-c2ccncc2)ccc1Cl")
7.18
>>> value("COc1cc(-c2nn(-c3cccc(NC(=O)c4ccc(N5CCOCC5)c(C(F)(F)F)c4)c3)cc2-c2ccncc2)ccc1Cl")
1.88

---

tested on: HT-29; assay: Growth inhibition of human HT-29 cells assessed as cell growth at 10 uM after 48 hrs by sulforhodamine B assay; format: functional; conditions: HT-29, 48 h, read-out: Activity
Form field: growth at 10 µM (one value per entry).
PARAMETER_MEASURED: growth at 10 µM (%)

>>> value("COc1cc(-c2nn(-c3cccc(NC(=O)Nc4ccc(Cl)c(C(F)(F)F)c4)c3)cc2-c2ccncc2)ccc1Cl")
-0.5
>>> value("COc1cc(-c2nn(-c3cccc(NC(=O)Nc4cccc(C(F)(F)F)c4)c3)cc2-c2ccncc2)ccc1Cl")
-64
>>> value("COc1cc(-c2nn(-c3cccc(NC(=O)Nc4ccc(Cl)c(Cl)c4)c3)cc2-c2ccncc2)ccc1Cl")
1.12
>>> value("O=C(Nc1cccc(-n2cc(-c3ccncc3)c(-c3ccc(Cl)c(O)c3)n2)c1)c1ccccc1")
53.5
>>> value("O=C(Nc1cccc(-n2cc(-c3ccncc3)c(-c3ccc(Cl)c(O)c3)n2)c1)c1ccc(Cl)c(C(F)(F)F)c1")
105
>>> value("COc1cc(-c2nn(-c3cccc(NC(=O)c4ccc(Br)c(C)c4)c3)cc2-c2ccncc2)ccc1Cl")
66.6
>>> value("COc1cc(-c2nn(-c3cccc(NC(=O)c4ccccc4)c3)cc2-c2ccncc2)ccc1Cl")
2.03

---

Form field: growth at 10 µM (one value per entry).
tested on: COLO 205; test: Growth inhibition of human COLO205 cells assessed as cell growth at 10 uM after 48 hrs by sulforhodamine B assay; format: functional; settings: COLO 205, 48 h, read-out: Activity
PARAMETER_MEASURED: growth at 10 µM (%)

>>> value("COc1cc(-c2nn(-c3cccc(NC(=O)c4ccc(Cl)c(C(F)(F)F)c4)c3)cc2-c2ccncc2)ccc1Cl")
69.4
>>> value("COc1cc(-c2nn(-c3cccc(NC(=O)Nc4cc(C(F)(F)F)cc(C(F)(F)F)c4)c3)cc2-c2ccncc2)ccc1Cl")
-98.7
>>> value("O=C(Nc1cccc(-n2cc(-c3ccncc3)c(-c3ccc(Cl)c(O)c3)n2)c1)Nc1ccc(Cl)c(C(F)(F)F)c1")
-60.2
>>> value("O=C(Nc1cccc(-n2cc(-c3ccncc3)c(-c3ccc(Cl)c(O)c3)n2)c1)c1ccc(N2CCOCC2)c(C(F)(F)F)c1")
96.1

---

test system: MDA-MB-231; test: Growth inhibition of human MDA-MB-231 cells after 48 hrs by sulforhodamine B assay; format: functional; details: MDA-MB-231, 48 h
I'd appreciate it if you marked entries TRUE when TGI is lower than 8000 nM and FALSE when it is not.

>>> category("COc1cc(-c2nn(-c3cccc(NC(=O)Nc4ccc(Cl)c(Cl)c4)c3)cc2-c2ccncc2)ccc1Cl")
"TRUE"
>>> category("COc1cc(-c2nn(-c3cccc(NC(=O)Nc4cc(C(F)(F)F)cc(C(F)(F)F)c4)c3)cc2-c2ccncc2)ccc1Cl")
"TRUE"
>>> category("O=C(Nc1cccc(-n2cc(-c3ccncc3)c(-c3ccc(Cl)c(O)c3)n2)c1)Nc1ccc(Cl)c(Cl)c1")
"FALSE"
>>> category("COc1cc(-c2nn(-c3cccc(NC(=O)c4ccc(Cl)c(C(F)(F)F)c4)c3)cc2-c2ccncc2)ccc1Cl")
"FALSE"
>>> category("O=C(Nc1cccc(-n2cc(-c3ccncc3)c(-c3ccc(Cl)c(O)c3)n2)c1)Nc1cc(C(F)(F)F)cc(C(F)(F)F)c1")
"TRUE"
>>> category("COc1cc(-c2nn(-c3cccc(NC(=O)c4cccc(C(F)(F)F)c4)c3)cc2-c2ccncc2)ccc1Cl")
"FALSE"
>>> category("COc1cc(-c2nn(-c3cccc(NC(=O)c4ccc(N5CCOCC5)c(C(F)(F)F)c4)c3)cc2-c2ccncc2)ccc1Cl")
"TRUE"

---

test system: RPMI-8226; test: Growth inhibition of human RPMI8226 cells assessed as cell growth at 3X10'-7 M after 48 hrs by sulforhodamine B assay; type: functional; details: RPMI-8226, 48 h, read-out: Activity
Form field: growth at 0.3 µM (one value per entry).
PARAMETER_MEASURED: growth at 0.3 µM (%)

>>> value("O=C(Nc1cccc(-n2cc(-c3ccncc3)c(-c3ccc(Cl)c(O)c3)n2)c1)Nc1ccc(Cl)c(Cl)c1")
90
>>> value("COc1cc(-c2nn(-c3cccc(NC(=O)Nc4ccc(Cl)c(C(F)(F)F)c4)c3)cc2-c2ccncc2)ccc1Cl")
87
>>> value("O=C(Nc1cccc(-n2cc(-c3ccncc3)c(-c3ccc(Cl)c(O)c3)n2)c1)Nc1cccc(C(F)(F)F)c1")
90
>>> value("COc1cc(-c2nn(-c3cccc(NC(=O)c4ccc(Cl)c(C(F)(F)F)c4)c3)cc2-c2ccncc2)ccc1Cl")
94

---

Form field: GI50 (one value per entry).
system: UACC-62; assay: Growth inhibition of human UACC62 cells after 48 hrs by sulforhodamine B assay; assay type: functional; details: UACC-62, 48 h
PARAMETER_MEASURED: GI50 (nM)

>>> value("COc1cc(-c2nn(-c3cccc(NC(=O)c4ccc(Cl)c(C(F)(F)F)c4)c3)cc2-c2ccncc2)ccc1Cl")
2100
>>> value("O=C(Nc1cccc(-n2cc(-c3ccncc3)c(-c3ccc(Cl)c(O)c3)n2)c1)c1ccc(N2CCOCC2)c(C(F)(F)F)c1")
3260
>>> value("COc1cc(-c2nn(-c3cccc(NC(=O)c4ccc(N5CCOCC5)c(C(F)(F)F)c4)c3)cc2-c2ccncc2)ccc1Cl")
266
>>> value("COc1cc(-c2nn(-c3cccc(NC(=O)Nc4ccc(Cl)c(Cl)c4)c3)cc2-c2ccncc2)ccc1Cl")
773
>>> value("COc1cc(-c2nn(-c3cccc(NC(=O)c4cccc(C(F)(F)F)c4)c3)cc2-c2ccncc2)ccc1Cl")
1940
>>> value("COc1cc(-c2nn(-c3cccc(NC(=O)c4ccccc4)c3)cc2-c2ccncc2)ccc1Cl")
692

---

Form field: growth at 10 µM (one value per entry).
tested on: SK-MEL-5; test: Growth inhibition of human SK-MEL-5 cells assessed as cell growth at 10 uM after 48 hrs by sulforhodamine B assay; assay type: functional; settings: SK-MEL-5, 48 h, read-out: Activity
PARAMETER_MEASURED: growth at 10 µM (%)

>>> value("COc1cc(-c2nn(-c3cccc(NC(=O)c4ccc(N5CCOCC5)c(C(F)(F)F)c4)c3)cc2-c2ccncc2)ccc1Cl")
3.41
>>> value("O=C(Nc1cccc(-n2cc(-c3ccncc3)c(-c3ccc(Cl)c(O)c3)n2)c1)Nc1cccc(C(F)(F)F)c1")
-25.5
>>> value("COc1cc(-c2nn(-c3cccc(NC(=O)c4ccccc4)c3)cc2-c2ccncc2)ccc1Cl")
-49.4
>>> value("COc1cc(-c2nn(-c3cccc(NC(=O)c4ccc(Cl)c(C(F)(F)F)c4)c3)cc2-c2ccncc2)ccc1Cl")
17.5
>>> value("O=C(Nc1cccc(-n2cc(-c3ccncc3)c(-c3ccc(Cl)c(O)c3)n2)c1)Nc1ccc(Cl)c(Cl)c1")
-40.2
>>> value("COc1cc(-c2nn(-c3cccc(NC(=O)c4ccc(Br)c(C)c4)c3)cc2-c2ccncc2)ccc1Cl")
71

---

Form field: growth at 10 µM (one value per entry).
tested on: OVCAR-3; assay: Growth inhibition of human OVCAR3 cells assessed as cell growth at 10 uM after 48 hrs by sulforhodamine B assay; format: functional; details: OVCAR-3, 48 h, read-out: Activity
PARAMETER_MEASURED: growth at 10 µM (%)

>>> value("O=C(Nc1cccc(-n2cc(-c3ccncc3)c(-c3ccc(Cl)c(O)c3)n2)c1)Nc1cccc(C(F)(F)F)c1")
0.81
>>> value("COc1cc(-c2nn(-c3cccc(NC(=O)c4ccc(Br)c(C)c4)c3)cc2-c2ccncc2)ccc1Cl")
90.9
>>> value("Cc1cc(C(=O)Nc2cccc(-n3cc(-c4ccncc4)c(-c4ccc(Cl)c(O)c4)n3)c2)ccc1Br")
104
>>> value("COc1cc(-c2nn(-c3cccc(NC(=O)c4ccc(N5CCOCC5)c(C(F)(F)F)c4)c3)cc2-c2ccncc2)ccc1Cl")
-29.9
